Entries and their folding stability dG
B1: EHEE_rd4_0726 (parent)
chain: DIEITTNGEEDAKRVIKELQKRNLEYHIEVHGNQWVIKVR

- Variants of: B1
- method: folding stability dG (cDNA display proteolysis); higher = more stable
- condition_description: PBS, room temperature
The figure you give is taken to be in kcal/mol; do not add the unit.

The examples below pair each entry with its known result.
G8I	1.95
N23S	1.95
L24W	2.05
K21F	2.25

I'd like to know its folding stability dG. The variant in question is `G8L`
1.83

// folding stability dG lookup, key: `H31T`
2.17

If you can, please state the reported folding stability dG value of `H31D` .
1.79

Which folding stability dG is reported for this variant? `N7H`
2.42

Any idea what folding stability dG was measured for `I2W` ?
3.69
